Values from patent US20180066068A9

- System: DLBCL cell lines
- assay-notes: Inhibition of cellular proliferation
- Format: cell-based
- run-parameters: expanded set of relevant models; 72 hours of treatment, DLBCL cell lines (FIG. 21)
quantity-kind: EC50

Query: Please give measured EC50 of the following entry: Cn1cc(-c2nc(N[C@@H]3CCCC[C@@H]3N)c(F)c3c2C(=O)NC3)cn1
Result: 25 to 4000 nM
